Examples of compounds with documented MIC follow.
- Test system: MBL-producing P. aeruginosa clinical isolates
- experiment summary: MIC by broth microdilution (CLSI)
- Assay type: cell-based, Pseudomonas aeruginosa
- condition parameters: Pseudomonas aeruginosa, PA-025, blaNDM

Please review the following examples before continuing.
| compound | study system | MIC |
| --- | --- | --- |
| CC(C)(O/N=C(\C(=O)N[C@@H]1C(=O)N2C(C(=O)[O-])=C(C[n+]3ccccc3)CS[C@H]12)c1csc(N)n1)C(=O)O [CAZ, ceftazidime] | MBL-producing P. aeruginosa clinical isolates | > 16 µg/mL |
| CNC(C)C1CCC(N)C(OC2C(N)CC(N)C(OC3OCC(C)(O)C(NC)C3O)C2O)O1 (stereo not shown) [GEN, gentamicin] | MBL-producing P. aeruginosa clinical isolates | > 8 µg/mL |
| C[C@H]1[C@H](NC(=O)/C(=N\OC(C)(C)C(=O)O)c2csc(N)n2)C(=O)N1S(=O)(=O)O [ATM, aztreonam] | MBL-producing P. aeruginosa clinical isolates | 16 µg/mL |
| C[C@@H](O)[C@H]1C(=O)N2C(C(=O)O)=C(SCCN=CN)C[C@H]12 [IPM, imipenem] | MBL-producing P. aeruginosa clinical isolates | > 8 µg/mL |

Ask: Answer with reported MIC of C[C@@H](O)[C@H]1C(=O)N2C(C(=O)O)=C(S[C@@H]3CN[C@H](C(=O)N(C)C)C3)[C@H](C)[C@H]12 [MEM, meropenem]
Result: > 32 µg/mL

Ask: Answer with reported MIC of NCC[C@H](O)C(=O)N[C@@H]1C[C@H](N)[C@@H](O[C@H]2O[C@H](CN)[C@@H](O)[C@H](O)[C@H]2O)[C@H](O)[C@H]1O[C@H]1O[C@H](CO)[C@@H](O)[C@H](N)[C@H]1O [AMK, amikacin]
Result: > 32 µg/mL

Ask: Answer with reported MIC of CO/N=C(\C(=O)N[C@@H]1C(=O)N2C(C(=O)[O-])=C(C[N+]3(C)CCCC3)CS[C@H]12)c1csc(N)n1 [FEP, cefepime]
Result: > 16 µg/mL

###

Examples of compounds with documented IC50 follow.
- study system: AmpC (Escherichia coli, UniProt P00811)
- Sequence (P00811 20-377): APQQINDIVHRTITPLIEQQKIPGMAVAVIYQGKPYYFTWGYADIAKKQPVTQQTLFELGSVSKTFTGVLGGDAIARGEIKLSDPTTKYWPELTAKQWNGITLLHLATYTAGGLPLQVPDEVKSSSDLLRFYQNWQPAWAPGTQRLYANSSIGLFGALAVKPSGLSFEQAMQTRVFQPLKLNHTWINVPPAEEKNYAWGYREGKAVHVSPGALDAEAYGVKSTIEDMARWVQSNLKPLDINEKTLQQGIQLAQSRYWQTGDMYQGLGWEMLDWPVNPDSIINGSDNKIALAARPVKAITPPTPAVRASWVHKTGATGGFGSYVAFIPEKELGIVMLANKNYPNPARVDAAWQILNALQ
- experiment summary: β-lactamase inhibition, nitrocefin hydrolysis

Please review the following examples before continuing.
| smiles text | measured property | test result |
| --- | --- | --- |
| CC(C)(C)CC(=O)Oc1c(-c2ccc(F)c(F)c2)oc2cc(O)cc(O)c2c1=O | IC50 | 19.2 µM |
| O=c1c(OCCc2cccs2)c(-c2ccc(F)c(F)c2)oc2cc(O)cc(O)c12 | IC50 | > 50 µM |

Ask: Enter recorded IC50 with AmpC (Escherichia coli, UniProt P00811) for `CN(C)CCOc1c(-c2ccc(F)c(F)c2)oc2cc(O)cc(O)c2c1=O` here.
Result: > 50 µM

Ask: Enter recorded IC50 with AmpC (Escherichia coli, UniProt P00811) for `CC(C)OC(=O)OCOc1c(-c2ccc(F)c(F)c2)oc2cc(O)cc(O)c2c1=O` here.
Result: > 50 µM

###

Examples of compounds with documented pIC50 follow.
- study system: VIM-2 (Escherichia coli, UniProt Q5U7L7)
- Construct: Genes encoding OXA-48 (residues 23–265) and VIM-2 (residues 27–266) were custom-synthesized; made in house
- experiment summary: β-lactamase inhibition, nitrocefin hydrolysis
- Assay type: biochemical
- condition parameters: nitrocefin substrate; read-out: β-Lactamases, IC50 VIM-2
pIC50: −log10 of the molar value.

Please review the following examples before continuing.
| compound | measured property | test result |
| --- | --- | --- |
| O=c1c(OCCC2CCCCC2)c(-c2ccc(F)c(F)c2)oc2cc(O)cc(O)c12 | pIC50 | 5.36 |
| CC(C)(C)CC(=O)Oc1c(-c2ccc(F)c(F)c2)oc2cc(O)cc(O)c2c1=O | pIC50 | 4.69 |
| O=c1c(OCCN2CCOCC2)c(-c2ccc(F)c(F)c2)oc2cc(O)cc(O)c12 | pIC50 | < 4.00 |
| CC(C)OC(=O)OCOc1c(-c2ccc(F)c(F)c2)oc2cc(O)cc(O)c2c1=O | pIC50 | < 4.00 |
| O=c1c(OCCC2CCNCC2)c(-c2ccc(F)c(F)c2)oc2cc(O)cc(O)c12 | pIC50 | < 4.00 |

Ask: Answer with reported pIC50 of `O=c1c(OCCCC2CCCC2)c(-c2ccc(F)c(F)c2)oc2cc(O)cc(O)c12`
Result: 5.29

Ask: Answer with reported pIC50 of `CC(C)(C)C(=O)OCOc1c(-c2ccc(F)c(F)c2)oc2cc(O)cc(O)c2c1=O`
Result: 4.71

Ask: Answer with reported pIC50 of `CC(C)c1ccc(COc2c(-c3ccc(F)c(F)c3)oc3cc(O)cc(O)c3c2=O)cc1`
Result: 4.88

Ask: Answer with reported pIC50 of `O=c1c(OCCC2CCOCC2)c(-c2ccc(F)c(F)c2)oc2cc(O)cc(O)c12`
Result: < 4.00

Ask: Answer with reported pIC50 of `O=c1c(OCCOCCO)c(-c2ccc(F)c(F)c2)oc2cc(O)cc(O)c12`
Result: < 4.00

Ask: Answer with reported pIC50 of `CC(C)(C)CCOc1c(-c2ccc(F)c(F)c2)oc2cc(O)cc(O)c2c1=O`
Result: 4.92

Ask: Answer with reported pIC50 of `O=c1c(OCCN2CCCCC2)c(-c2ccc(F)c(F)c2)oc2cc(O)cc(O)c12`
Result: < 4.00

Ask: Answer with reported pIC50 of `NCCOCCOc1c(-c2ccc(F)c(F)c2)oc2cc(O)cc(O)c2c1=O`
Result: < 4.00

Ask: Answer with reported pIC50 of `CC(C)(C)c1ccc(COc2c(-c3ccc(F)c(F)c3)oc3cc(O)cc(O)c3c2=O)cc1`
Result: < 4.00

Ask: Answer with reported pIC50 of `O=c1c(O)c(-c2ccc(F)c(F)c2)oc2cc(O)cc(O)c12`
Result: < 4.00

Ask: Answer with reported pIC50 of `O=c1c(OCCN2CCNCC2)c(-c2ccc(F)c(F)c2)oc2cc(O)cc(O)c12`
Result: < 4.00

Ask: Answer with reported pIC50 of `O=c1c(OCCc2cccs2)c(-c2ccc(F)c(F)c2)oc2cc(O)cc(O)c12`
Result: < 4.00

Ask: Answer with reported pIC50 of `CN1CCN(CCOc2c(-c3ccc(F)c(F)c3)oc3cc(O)cc(O)c3c2=O)CC1`
Result: < 4.00

Ask: Answer with reported pIC50 of `O=c1c(OCCO)c(-c2ccc(F)c(F)c2)oc2cc(O)cc(O)c12`
Result: < 4.00

Ask: Answer with reported pIC50 of `CN(C)CCOc1c(-c2ccc(F)c(F)c2)oc2cc(O)cc(O)c2c1=O`
Result: < 4.00

Ask: Answer with reported pIC50 of `O=c1c(OCCOCCOCCO)c(-c2ccc(F)c(F)c2)oc2cc(O)cc(O)c12`
Result: < 4.00

Ask: Answer with reported pIC50 of `C[N+](C)(CCOc1c(-c2ccc(F)c(F)c2)oc2cc(O)cc(O)c2c1=O)CC(=O)[O-]`
Result: < 4.00

###

Examples of compounds with documented IC50 follow.
- study system: KPC-2 (Klebsiella pneumoniae)
- Construct: purchased LifeSpan Biosciences, Inc. LS-G26598
- Sequence (Q9F663 25-293, looked up): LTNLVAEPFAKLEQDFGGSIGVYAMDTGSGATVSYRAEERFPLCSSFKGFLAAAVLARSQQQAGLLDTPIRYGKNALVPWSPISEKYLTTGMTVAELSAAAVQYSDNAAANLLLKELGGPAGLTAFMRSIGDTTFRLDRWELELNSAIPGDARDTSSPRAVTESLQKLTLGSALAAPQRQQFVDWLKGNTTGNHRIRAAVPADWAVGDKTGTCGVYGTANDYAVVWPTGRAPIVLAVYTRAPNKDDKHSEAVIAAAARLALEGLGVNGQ
- experiment summary: β-lactamase inhibition, nitrocefin hydrolysis
- Format: biochemical
- condition parameters: nitrocefin substrate; read-out: β-Lactamases, IC50 KPC-2
Give your result in µM as a bare value.

Please review the following examples before continuing.
| smiles text | unit of measurement | IC50 |
| --- | --- | --- |
| O=c1c(OCCC2CC2)c(-c2ccc(F)c(F)c2)oc2cc(O)cc(O)c12 | µM | 22.8 |
| O=c1c(OCCC2CCCC2)c(-c2ccc(F)c(F)c2)oc2cc(O)cc(O)c12 | µM | 11.5 |

Proceed to the following item.
Ask: Answer with reported IC50 of `CC(C)CCOc1c(-c2ccc(F)c(F)c2)oc2cc(O)cc(O)c2c1=O`
Result: 39.4

###

- study system: AmpC (Escherichia coli, UniProt P00811)
- experiment summary: β-lactamase inhibition, nitrocefin hydrolysis
- Protocol: Recombinant AmpC from Escherichia coli was produced according to a previously reported protocol. […] Genes encoding OXA-48 (residues 23–265) and VIM-2 (residues 27–266) were custom-synthesized (Bioneer Inc., Seoul, Republic of Korea) and expressed as previously described. The β-lactamase inhibitory activity of the title compounds was then determined according to the previously reported methods. […]
measured property: IC50

| compound | study system | IC50 |
| --- | --- | --- |
| CN1CCN(CCOc2c(-c3ccc(F)c(F)c3)oc3cc(O)cc(O)c3c2=O)CC1 | AmpC (Escherichia coli, UniProt P00811) | > 50 µM |
| O=c1c(OCCC2CCNCC2)c(-c2ccc(F)c(F)c2)oc2cc(O)cc(O)c12 | AmpC (Escherichia coli, UniProt P00811) | > 50 µM |
| O=c1c(OCCO)c(-c2ccc(F)c(F)c2)oc2cc(O)cc(O)c12 | AmpC (Escherichia coli, UniProt P00811) | > 50 µM |
| O=c1c(OCCC2CCCC2)c(-c2ccc(F)c(F)c2)oc2cc(O)cc(O)c12 | AmpC (Escherichia coli, UniProt P00811) | 21 µM |

Proceed to the following item.
Ask: Enter recorded IC50 with AmpC (Escherichia coli, UniProt P00811) for `O=c1c(OCCOCCO)c(-c2ccc(F)c(F)c2)oc2cc(O)cc(O)c12` here.
Result: > 50 µM
